assay: qHTS assay to identify small molecules that stimulate interleukin-8 (IL-8) secretion (AID 651758); conditions: HTRF ratio (665/615); series mostly up to 92.2 µM; for activation: 0% is about no effect
Inconclusive results are not listed. Active and inactive are the calls of the source. Calls come from the whole dose curve; as a rule, active = well fitted activation curve with a large enough effect in the signal ratio; inconclusive = small, poorly fitted or top-dose-only effect, or effect the other way, or a change in a side signal; inactive = flat fitted curve, though single readings scatter; the % refers to the signal ratio.
Classes to choose from: True (active), False (inactive)

[Q] Given ClC1=C(Cl)C2(Cl)C3C(Cl)C(Cl)CC3C1(Cl)C2(Cl)Cl (centres undefined) , state the outcome it received in this test.
[A] True

[Q] Given COP(=O)(OC)O/C(=C\Cl)c1cc(Cl)c(Cl)cc1Cl , state the outcome it received in this test.
[A] False

[Q] Given c1cc(OCC2CO2)cc(OCC2CO2)c1 (centres undefined) , state the outcome it received in this test.
[A] True

[Q] Given C(=NC1CCCCC1)=NC1CCCCC1 , state the outcome it received in this test.
[A] True

----------
assay: qHTS assay for small molecule antagonists of retinoid X receptor alpha signaling (AID 588546); conditions: HEK293T RXRa-UAS-bla, beta-lactamase ratio, antagonist mode; measured here: W530 green channel, cytotoxicity proxy;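 note: cells stimulated with 9-cis-retinoic acid as agonist; % is set by controls: 0 for no effect and ±100 for the full control effect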
Records with an inconclusive call do not appear.
Field: max response. Provide a value for each of the compounds that follow.
Answer in %, number only, no unit symbol.

[Q] Which max response is reported for this compound? CCOc1cc(Oc2ccc(C(F)(F)F)cc2Cl)ccc1[N+](=O)[O-]
[A] -9.67

[Q] Which max response is reported for this compound? C#CCC1=C(C)[C@H](OC(=O)[C@H]2[C@H](C=C(C)C)C2(C)C)CC1=O
[A] -0.262

[Q] Which max response is reported for this compound? CN1COCN(Cc2cnc(Cl)s2)/C1=N\[N+](=O)[O-]
[A] -4.43

[Q] Which max response is reported for this compound? COP(=S)(OC)Oc1c(Cl)cc(C)cc1Cl
[A] -6.8

[Q] Which max response is reported for this compound? Cc1ccn2nc(S(=O)(=O)Nc3c(F)cccc3F)nc2n1
[A] 2.3

[Q] Which max response is reported for this compound? C[N+]1(C)CCCCC1
[A] -2.65

[Q] Which max response is reported for this compound? CCCCCCCCCCCCN(C)C
[A] 1.32

[Q] Which max response is reported for this compound? COCC(=O)N(c1c(C)cccc1C)[C@H](C)C(=O)OC
[A] -4.91

[Q] Which max response is reported for this compound? ClC1=C(Cl)C2(Cl)C3C4OC4C(Cl)C3C1(Cl)C2(Cl)Cl (configuration not stated)
[A] -11.3

[Q] Which max response is reported for this compound? CCCCN(CC)C(=O)SCCC
[A] -6.82

[Q] Which max response is reported for this compound? CC1(C)C(C(=O)OC(C#N)c2cccc(Oc3ccccc3)c2)C1(C)C (configuration not stated)
[A] -18.6

[Q] Which max response is reported for this compound? CC(Oc1ccc(Cl)cc1Cl)C(=O)O (configuration not stated)
[A] 2.43

----------
assay: qHTS assay for cell viability of HEK293 cells (AID 743288); conditions: ATP luminescence (CellTiter-Glo), 18 h; stronger effect = lower value; note: % is set by controls: 0 for no effect and ±100 for the full control effect; nearly all actives have a fitted effect of over 50% in size
Results filed as inconclusive are left out.
I'd appreciate it if you marked entries criterion met when max response is lower than -10% and criterion not met when it is not.

[Q] Confirm or reject: max response of CCOc1nc(F)cc2nc(S(=O)(=O)Nc3c(Cl)cccc3Cl)nn12 lies strictly below -10%
[A] criterion met

[Q] Confirm or reject: max response of O=Cc1cccc(Oc2ccccc2)c1 lies strictly below -10%
[A] criterion not met

[Q] Confirm or reject: max response of Clc1ccc([C@@]2(Cn3cncn3)C[C@H](Br)CO2)c(Cl)c1 lies strictly below -10%
[A] criterion met

[Q] Confirm or reject: max response of O=C(Nc1ccccc1)Nc1ccnc(Cl)c1 lies strictly below -10%
[A] criterion not met

[Q] Confirm or reject: max response of CN/C(=N\[N+](=O)[O-])NCc1cnc(Cl)s1 lies strictly below -10%
[A] criterion not met

[Q] Confirm or reject: max response of c1ccc2c(c1)oc1ccccc12 lies strictly below -10%
[A] criterion not met

[Q] Confirm or reject: max response of c1cc2c3c(cccc3c1)CC2 lies strictly below -10%
[A] criterion not met

[Q] Confirm or reject: max response of C#CC(C)(C)NC(=O)c1cc(Cl)cc(Cl)c1 lies strictly below -10%
[A] criterion not met

[Q] Confirm or reject: max response of CCc1cc(C)cc(CC)c1-c1c(OC(=O)C(C)(C)C)n2n(c1=O)CCOCC2 lies strictly below -10%
[A] criterion not met

[Q] Confirm or reject: max response of Cc1ccc(-c2c(Cl)nc(C#N)n2S(=O)(=O)N(C)C)cc1 lies strictly below -10%
[A] criterion met

[Q] Confirm or reject: max response of CCC(CC)Nc1c([N+](=O)[O-])cc(C)c(C)c1[N+](=O)[O-] lies strictly below -10%
[A] criterion not met

[Q] Confirm or reject: max response of CCOP(=O)(OCC)SCSP(=S)(OCC)OCC lies strictly below -10%
[A] criterion not met

[Q] Confirm or reject: max response of OC(Cn1cncn1)(c1ccc(F)cc1)c1ccccc1F (stereo not given) lies strictly below -10%
[A] criterion not met

[Q] Confirm or reject: max response of CCCCCCCCCCCC#N lies strictly below -10%
[A] criterion not met

[Q] Confirm or reject: max response of CC1(C)CCC(Cc2ccc(Cl)cc2)C1(O)Cn1cncn1 (stereo not given) lies strictly below -10%
[A] criterion met

[Q] Confirm or reject: max response of CNc1cnn(-c2cccc(C(F)(F)F)c2)c(=O)c1Cl lies strictly below -10%
[A] criterion not met

[Q] Confirm or reject: max response of COc1ccc(C(O)(c2cncnc2)C2CC2)cc1 (stereo not given) lies strictly below -10%
[A] criterion not met

[Q] Confirm or reject: max response of CCOP(=S)(NC(C)C)Oc1ccccc1C(=O)OC(C)C (stereo not given) lies strictly below -10%
[A] criterion met

[Q] Confirm or reject: max response of CCN(CC)C(=O)SCc1ccc(Cl)cc1 lies strictly below -10%
[A] criterion met

[Q] Confirm or reject: max response of COP(=O)(OC)SCn1c(=O)oc2cc(Cl)cnc21 lies strictly below -10%
[A] criterion met

[Q] Confirm or reject: max response of CCOc1ccc(C(C)(C)COCc2cccc(Oc3ccccc3)c2)cc1 lies strictly below -10%
[A] criterion not met

[Q] Confirm or reject: max response of C#CCC1=C(C)[C@H](OC(=O)[C@H]2[C@H](C=C(C)C)C2(C)C)CC1=O lies strictly below -10%
[A] criterion met

[Q] Confirm or reject: max response of COc1cc(OC)nc(NC(=O)NS(=O)(=O)c2cc(NC=O)ccc2C(=O)N(C)C)n1 lies strictly below -10%
[A] criterion met

[Q] Confirm or reject: max response of CCOc1cc(Oc2ccc(C(F)(F)F)cc2Cl)ccc1[N+](=O)[O-] lies strictly below -10%
[A] criterion not met

[Q] Confirm or reject: max response of CC1CCCCC1NC(=O)Nc1ccccc1 (stereo not given) lies strictly below -10%
[A] criterion met
